Where do these numbers come from? They come from PubChem BioAssay (NCI).

System: OVCAR-4 ovarian
Assay: NCI-60 one-dose screen, 48 h (100 = growth as untreated, 0 = no growth, -100 = all killed)
Conditions: 10 µM unless noted
Experimental: Growth inhibition of the OVCAR-4 human tumor cell line is measured as a screen for anti-cancer activity. Cells are grown in 96 well plates and exposed to the test compound for 48 hours. Compounds are tested at a single concentration, which is 10^-5 M for most compounds. The reported endpoint is percent growth (GI% or GIPRCNT), where numbers from 0 - 100% represent growth inhibition, and numbers from -100% - 0 represent cell death. For example, a value of 40 represents 60% growth inhibition. […]
This is part of a sample that, as a whole, favours compounds with a hit. Of some 83,000 tested, about 20% had one in any assay.
Lab note - cut at 30% for growth: YES if strictly below, NO if not.

compound	class.assignment
COC(=O)c1nc(-c2ccccc2)oc1S(=O)(=O)n1nc(-c2ccccc2)cc1N	NO
CC(C)CSc1nc(Nc2ccccc2)c(C#N)c(-c2ccc(F)cc2)n1	YES
CCCCn1c2cc(OCc3cn(-c4ccc(Cl)cc4)nn3)ccc2c2ccnc(C)c21	YES
CC1(c2ccccc2Cl)NC(=O)NC1=O (stereo unspecified)	NO

We now examine a further compound.
Lab note: growth threshold 30%. Does this compound come in strictly under it? "COc1cc(/C=C/C(=O)c2cccs2)ccc1OCc1ccc(Cl)nc1"
NO

* * *

tested on: MALME-3M melanoma; assay: NCI-60 one-dose screen, 48 h (100 = growth as untreated, 0 = no growth, -100 = all killed); conditions: 10 µM unless noted
The panel holds about 83,000 compounds, 20% with a hit somewhere; the sample as a whole holds those more often.
experimental.endpoint: growth (%)
Unit % implied. Number only.

Could you tell me which growth is on file for CC1CCCN(CCCCCOc2ccc3oc4ccc(Cl)cc4c(=O)c3c2)C1 (stereo not drawn) ?
52

Query: growth; subject: "CCOC(=O)c1cnn(-c2nc(-c3ccc(F)cc3)c(C#N)c(N3CCOCC3)n2)c1N"
107

* * *

tested on: SK-MEL-28 melanoma; assay: NCI-60 one-dose screen, 48 h; conditions: 10 µM unless noted
Compounds without any hit were thinned out: in the full panel of roughly 83,000, 20% have a hit. Calls of active or inactive are those of the source. Rule for the calls: active = growth percent below 10; inactive = the rest.
Outcome field: choose from true (1) (active), false (0) (inactive)

compound	class.assignment
COc1ccc2nc3c(n2c1)C(=O)C(=O)c1ccccc1-3	true (1)
CN(C)C(CNc1oc(-c2cccc3ccccc23)nc1C#N)c1ccco1 (centres undefined)	false (0)
CC(=O)c1ccc(NC(=O)CSc2nnc(-c3cc(-c4ccc(Cl)cc4)nc4ccccc34)o2)cc1	false (0)

How did this test come out for CCOC(=O)C1=C(C)n2nc(CC#N)c(C#N)c2NC1c1ccc(Cl)cc1 (centres undefined) ?
false (0)

* * *

Tested on: K-562 leukemia
Experiment: NCI-60 one-dose screen, 48 h
Conditions: 10 µM unless noted
Protocol: Cells are grown in 96 well plates and exposed to the test compound for 48 hours. Compounds are tested at a single concentration, which is 10^-5 M for most compounds. The reported endpoint is percent growth (GI% or GIPRCNT), where numbers from 0 - 100% represent growth inhibition, and numbers from -100% - 0 represent cell death. For example, a value of 40 represents 60% growth inhibition. A value of 0 means no net growth occurred over the course of the experiment. […]
About 83,000 compounds went through this panel and 20% of them were active in at least one assay; those are over-represented in the sample as a whole. Active and inactive are the calls of the source. How the source made its calls: active means growth percent below 10; inactive means the rest.
Would you mind answering with one of these outcomes? active, inactive

// outcome(item) with item = "O=C(CCc1nnco1)c1nc2ccc([N+](=O)[O-])cc2[nH]1"
inactive

Field: outcome | Entry: "CCCCCCCc1n(Cc2ccc3ccccc3c2)c2ccccc2[n+]1Cc1ccc2ccccc2c1"
active

* * *

system: MALME-3M melanoma; assay: NCI-60 one-dose screen, 48 h (100 = growth as untreated, 0 = no growth, -100 = all killed); settings: 10 µM unless noted
The panel holds about 83,000 compounds, 20% with a hit somewhere; the sample as a whole holds those more often.
experimental.endpoint: growth (%)
Numeric only. Scale: %

Known growth results, listed for orientation:
1) NC(=N\N=C\c1ccccc1O)/C(N)=N/N=C/c1ccccc1O 79
2) O=C(Nc1ccc2ncnc(Nc3ccc(F)c(Cl)c3)c2c1)c1ccccc1 90.4
3) C=C1C(=O)O[C@H]2[C@H]1CC/C(COC(=O)c1cccnc1)=C\CC[C@@]1(C)O[C@@H]21 66.9

Okay, next one:
Fill in: growth of "Cc1cc(Cl)cc(CN(Cc2ccccc2)Cc2c(O)ccc3ccccc23)c1O" is ___
96.7

* * *

test system: HCC-2998 colon; assay: NCI-60 one-dose screen, 48 h (100 = growth as untreated, 0 = no growth, -100 = all killed); details: 10 µM unless noted
This is part of a sample that, as a whole, favours compounds with a hit. Of some 83,000 tested, about 20% had one in any assay.
Property: growth; scope: individual molecules
Quick note: give the figure in %, leave out the unit.

// worked examples, growth included
1. CCOC(=O)/C(=C/c1c(-c2ccccc2)[nH]c2ccccc12)C(=O)c1ccc(Cl)cc1 67.1
2. CC(C)CSc1nc(Nc2ccccc2)c(C#N)c(-c2ccc(F)cc2)n1 69.1
3. CCc1ccc(OCc2ccccc2C(=O)Nc2ccc3nc(C)cc(N)c3c2)cc1 -76.8
4. C=C1C(=O)O[C@H]2[C@H]1CCC(/C=N/c1ncc(Br)cc1N)=C\CC[C@@]1(C)O[C@@H]21 62.2
5. COC(=O)c1nc(-c2ccccc2)oc1S(=O)(=O)n1nc(C)cc1N 115

Dear colleague, I am looking for the recorded growth of the following molecule: "CCN1CCC[C@H]1c1cc(O)c2c(c1OC)C[C@H]1C[C@H]3[C@H](N)C(=O)C(C(N)=O)=C(O)[C@@]3(O)C(=O)C1=C2O"
-6.34

Name the recorded growth for "CC(C)(C)CC(C)(C)Cc1ccc(OCCOCC[N+](C)(C)Cc2ccccc2)cc1" .
-10

Using the record for "CC[C@H](Nc1ncnc2nc[nH]c12)c1nc2cccc(CC(=O)c3ccc(C(=O)NO)cc3)c2c(=O)n1-c1ccccc1" , report its growth.
88.9

* * *

tested on: NCI-H460 lung; assay: NCI-60 one-dose screen, 48 h (100 = growth as untreated, 0 = no growth, -100 = all killed); details: 10 µM unless noted
This is part of a sample that, as a whole, favours compounds with a hit. Of some 83,000 tested, about 20% had one in any assay.
Answer false if growth is under 10%, and true if it is 10% or more.

compound	target.system	class.assignment
Cc1cnc(SCc2ccc(Cl)cc2Cl)nc1Nc1ccc(Cl)c(Cl)c1	NCI-H460 lung	true
CC(C)CSc1nc(Nc2ccccc2)c(C#N)c(-c2ccc(F)cc2)n1	NCI-H460 lung	false
COc1ccc(C2CC(c3ccc(OC)cc3O)=NN2c2ccc(S(N)(=O)=O)cc2)cc1 (centres undefined)	NCI-H460 lung	true

Exam item: decide whether the reported growth for "Nc1c(C(=O)Nc2cccc3ccccc23)sc2nc3c(cc12)COCC3" is at least 10%.
true

Identify whether the reported growth of the following compound is 10% or greater: "CNC(=O)c1cc(Oc2ccc3c(c2)sc2nc(-c4ccc(NC(C)=O)cc4)cn23)ccn1"
true

Decide: is the reported value of growth for NC(=O)c1ccc(C2C3=C(CCCC3=O)OC3=C2C(=O)c2ccccc2C3=O)cc1 (centres undefined) equal to or greater than 10%?
false

Tell me whether growth is at least 10% here: "Cc1ccc(CS/C(=C\c2ccc([N+](=O)[O-])cc2)C(=O)c2ccc(F)cc2)cc1"
true

Does the reported growth for "O=C(CCCC(=O)Nc1ccc(-n2nnc3cc(Cl)c(Cl)cc32)cc1)Nc1ccc(-n2nnc3cc(Cl)c(Cl)cc32)cc1" fall at or above the 10% mark?
true

Answer whether growth of CC1CCCN(CCCCCOc2ccc3oc4ccc(Cl)cc4c(=O)c3c2)C1 (centres undefined) is greater than or equal to 10%.
true

Determine whether measured growth meets or exceeds 10% for "C=C(C)[C@@H]1CC[C@]2(C(=O)O)CC[C@]3(C)[C@H](CC[C@@H]4[C@@]5(C)C[C@@H](CC#Cc6ccccc6)C(=O)C(C)(C)[C@@H]5CC[C@]43C)[C@@H]12"
true

// inclusive: growth at least 10%? input: "C#Cc1cccc(Nc2ncnc3ccc(NC(=O)c4ccccc4)cc23)c1"
true

Item "Nc1ccccc1NS(=O)(=O)c1ccc(Cl)cc1" with growth of 10% or above?
true

In plain terms: is recorded growth at least 10% for "COc1cc2cc(c1Cl)N(C)C(=O)C[C@H](OC(=O)[C@H](C)N(C)C(=O)CCS)C[C@]1(C)O[C@H]1[C@H](C)[C@@H]1C[C@@](O)(NC(=O)O1)[C@H](OC)/C=C/C=C(\C)C2" ?
false

Item "CCN1CCN(Cc2ccc(NC(=O)c3cccc(C#Cc4cccc5[nH]nc(N)c45)c3)cc2C(F)(F)F)CC1" with growth of 10% or above?
false
